Here's what we have: MIC numbers for Acinetobacter baumanii A3-08.
quantity_name: MIC (µg/mL)

- compound: "CCCCCCCCCCCCCCOP(=O)(CCN(CCCN)CCCN)OC[C@H]1O[C@@H](n2ccc(=O)[nH]c2=O)C(O)C1O (stereo partly drawn) [Example 3]"
  MIC (µg/mL): 25
- compound: "CCCCCCCCCCCCCCCOP(=O)(CCN(CCCN)CCCN)OC[C@H]1O[C@@H](n2ccc(=O)[nH]c2=O)C(O)C1O (stereo partly drawn) [Example 2]"
  MIC (µg/mL): 6.25
- compound: "CCCCCCCCCCCCCCOP(=O)(CCN(CCN)CCN)OC[C@H]1O[C@@H](n2ccc(=O)[nH]c2=O)C(O)C1O (stereo partly drawn) [Example 7]"
  MIC (µg/mL): 25
- compound: "CCCCCCCCCCCCCCOP(=O)(CCN(CCCNC(=N)N)CCCNC(=N)N)OC[C@H]1O[C@@H](n2ccc(=O)[nH]c2=O)C(O)C1O (stereo partly drawn) [Example 9]"
  MIC (µg/mL): 12.5

I. CCCCCCCCCCCCCOP(=O)(CCN(CCCN)CCCN)OC[C@H]1O[C@@H](n2ccc(=O)[nH]c2=O)C(O)C1O (stereo partly drawn) [Example 4]
II. CCCCCCCCCCCCCCCOP(=O)(CCN(CCCNC(=N)N)CCCNC(=N)N)OC[C@H]1O[C@@H](n2ccc(=O)[nH]c2=O)C(O)C1O (stereo partly drawn) [Example 8]
Of I and II , which shows the smaller MIC value? Refer to your chosen entry by its label in the reply.
II

====

Test system: Staphylococcus aureus CCM 4223
assay_comment: MIC, microdilution method, reference strains
Type: cell-based
test_parameters: CCM4223, read after 24/48 hours of incubation at 37° C.
quantity_name: MIC (µg/mL)

- compound: "CCCCCCCCCCCCCCOP(=O)(CCN(CCN)CCN)OC[C@H]1O[C@@H](n2ccc(=O)[nH]c2=O)C(O)C1O (stereo partly shown) [Example 7]"
  measure_unit: "µg/mL"
  MIC: 25

1. CCCCCCCCCCCCOP(=O)(CCN(CCCN)CCCN)OC[C@H]1O[C@@H](n2ccc(=O)[nH]c2=O)C(O)C1O (stereo partly shown) [Example 5]
2. CCCCCCCCCCCCCCCOP(=O)(CCN(CCCNC(=N)N)CCCNC(=N)N)OC[C@H]1O[C@@H](n2ccc(=O)[nH]c2=O)C(O)C1O (stereo partly shown) [Example 8]
3. CCCCCCCCCCCCCOP(=O)(CCN(CCCN)CCCN)OC[C@H]1O[C@@H](n2ccc(=O)[nH]c2=O)C(O)C1O (stereo partly shown) [Example 4]
Falling order of MIC, please. Hello, could you send the labels back in the order asked? Thank you.
1, 3, 2

====

Tested on: Stenotrophomonas matophilia S2-23
quantity_name: MIC (µg/mL)

Example results:
- compound: "CCCCCCCCCCCCCCCOP(=O)(CCN(CCCNC(=N)N)CCCNC(=N)N)OC[C@H]1O[C@@H](n2ccc(=O)[nH]c2=O)C(O)C1O (stereo partly drawn)"
  tested_system: "Stenotrophomonas matophilia S2-23"
  quantity_name: "MIC"
  assay_result: 3.12
- compound: "CCCCCCCCCCCCCCOP(=O)(CCN(CCN)CCN)OC[C@H]1O[C@@H](n2ccc(=O)[nH]c2=O)C(O)C1O (stereo partly drawn)"
  tested_system: "Stenotrophomonas matophilia S2-23"
  quantity_name: "MIC"
  assay_result: 6.25
- compound: "CCCCCCCCCCCCCCOP(=O)(CCN(CCCNC(=N)N)CCCNC(=N)N)OC[C@H]1O[C@@H](n2ccc(=O)[nH]c2=O)C(O)C1O (stereo partly drawn)"
  tested_system: "Stenotrophomonas matophilia S2-23"
  quantity_name: "MIC"
  assay_result: 12.5
- compound: "CCCCCCCCCCCCCCOP(=O)(CCN(CCCN)CCCN)OC[C@H]1O[C@@H](n2ccc(=O)[nH]c2=O)C(O)C1O (stereo partly drawn)"
  tested_system: "Stenotrophomonas matophilia S2-23"
  quantity_name: "MIC"
  assay_result: 50

1. CCCCCCCCCCCCCOP(=O)(CCN(CCCN)CCCN)OC[C@H]1O[C@@H](n2ccc(=O)[nH]c2=O)C(O)C1O (stereo partly drawn)
2. CCCCCCCCCCCCCCCOP(=O)(CCN(CCCN)CCCN)OC[C@H]1O[C@@H](n2ccc(=O)[nH]c2=O)C(O)C1O (stereo partly drawn)
Short answer wanted: higher MIC, 1 or 2 ? Let me know the label of the one you choose.
1
